Tested on: SR leukemia
Experiment: NCI-60 one-dose screen, 48 h
Conditions: 10 µM unless noted
Protocol: Growth inhibition of the SR human tumor cell line is measured as a screen for anti-cancer activity. Cells are grown in 96 well plates and exposed to the test compound for 48 hours. Compounds are tested at a single concentration, which is 10^-5 M for most compounds. The reported endpoint is percent growth (GI% or GIPRCNT), where numbers from 0 - 100% represent growth inhibition, and numbers from -100% - 0 represent cell death. For example, a value of 40 represents 60% growth inhibition. […]
The panel holds about 83,000 compounds, 20% with a hit somewhere; the sample as a whole holds those more often. Activity calls are given as the source filed them. How the source made its calls: active means growth percent below 10; inactive means the rest.
Classes used: t for active, f for inactive

[[record]]
molecule = "O=C(/C=C\\c1ccc(O)c(O)c1)c1ccccc1O"
qualitative_label = "t"

[[record]]
molecule = "CN(C)C(=O)OCc1ccc2c(Cl)cc(Cl)c(O)c2n1"
qualitative_label = "f"

[[record]]
molecule = "Nc1ncc(-c2ccc3ncnc(N4CCc5cc(F)c(Cl)cc54)c3c2)cn1"
qualitative_label = "f"

[[record]]
molecule = "COc1cc(OC)cc(C(=O)Nc2cnc(Nc3ccc(N4CCOCC4)nc3)nc2Oc2ccc(C(F)(F)F)cc2)c1"
qualitative_label = "f"

[[record]]
molecule = "COCCNC(=O)Cc1cc(-c2ccc(Cl)cc2)n(-c2ccccc2)c1C"
qualitative_label = "f"

[[record]]
molecule = "O=c1c(/C=C/c2c(O)ccc3ccccc23)nnc2sc(-c3cccc([N+](=O)[O-])c3)nn12"
qualitative_label = "f"

[[record]]
molecule = "C=C(C[n+]1ccccc1)[C@@H]1CC[C@]2(C(=O)OC)CC[C@]3(C)[C@H](CC[C@@H]4[C@@]5(C)CCC(=O)C(C)(C)[C@@H]5CC[C@]43C)[C@@H]12"
qualitative_label = "f"

[[record]]
molecule = "CNc1nc2ncc(-c3c(C)noc3C)cc2n1Cc1ccccc1"
qualitative_label = "f"

[[record]]
molecule = "CC1(C)CC[C@]2(CO)CC[C@]3(C)C(=CC[C@@H]4[C@@]5(C)CCNCC(C)(C)[C@@H]5CC[C@]43C)[C@@H]2C1"
qualitative_label = "t"

[[record]]
molecule = "Cc1nc2c(c(-c3ccccc3)n1)Cc1c(ccc3ccccc13)O2"
qualitative_label = "f"

[[record]]
molecule = "c1ccc(Cn2cc3c(c2)-c2nc(Nc4ccccc4)ncc2CC3)cc1"
qualitative_label = "f"

[[record]]
molecule = "COc1ccc(S(=O)(=O)Oc2ccc(-c3sc4cc(OS(=O)(=O)c5ccc(OC)cc5)ccc4c3C(=O)c3ccc(OCCN4CCCCC4)cc3)cc2)cc1"
qualitative_label = "f"

[[record]]
molecule = "C=CCNc1ccc2c3c(cccc13)C(=O)N(CC=C)C2=O"
qualitative_label = "f"

[[record]]
molecule = "O=C1C(Nc2ccc(Br)cc2)=C(I)C(=O)c2ncccc21"
qualitative_label = "t"

[[record]]
molecule = "NC(=O)[C@@H]1Cc2ccccc2CN1C(=O)c1ccc2c(c1)Cc1ccccc1-2"
qualitative_label = "f"

[[record]]
molecule = "Cc1ccc(NC(=O)c2ccc(Nc3ncnc4c3cnn4-c3cccc(F)c3)cc2)cc1"
qualitative_label = "f"

[[record]]
molecule = "COC(=O)[C@@H](Cc1c[nH]c2ccccc12)NC(=O)[C@H](Cc1ccccc1)NCc1ccncc1"
qualitative_label = "f"

[[record]]
molecule = "COc1c(O[C@@H]2OC(CO)[C@H](O)[C@H](O)C2O)cc2oc3cc(O)c(CC=C(C)C)c(O)c3c(=O)c2c1CC=C(C)C (stereo partly drawn)"
qualitative_label = "f"

[[record]]
molecule = "CCN1CCN(c2cc(C(=O)Nc3cccc(Nc4ccc5c(OC)cccc5n4)c3)cc(C(F)(F)F)c2)CC1"
qualitative_label = "t"

[[record]]
molecule = "Cn1cc(-c2nc(-c3c[nH]c4ccncc34)cs2)c2cc(F)ccc21"
qualitative_label = "t"

[[record]]
molecule = "COC(=O)c1c(C(=O)OC)c2ccc3c4ncccc4ccc3n2c1C(=O)c1ccc(C)cc1"
qualitative_label = "f"

[[record]]
molecule = "CCCCC/C=C/CCC(=O)N[C@H]1[C@H](Oc2c3cc4cc2Oc2ccc(cc2Cl)[C@@H](O[C@@H]2O[C@H](CO)[C@@H](O)[C@H](O)[C@H]2NC(C)=O)[C@@H]2NC(=O)[C@H](NC(=O)[C@@H]4NC(=O)[C@H]4NC(=O)[C@@H](Cc5ccc(c(Cl)c5)O3)NC(=O)[C@@H](N)c3ccc(O)c(c3)Oc3cc(O)cc4c3)c3ccc(O)c(c3)-c3c(O[C@H]4O[C@H](CO)[C@@H](O)[C@H](O)[C@@H]4O)cc(O)cc3[C@H](C(=O)O)NC2=O)O[C@H](CO)[C@H](O)[C@@H]1O"
qualitative_label = "f"

[[record]]
molecule = "CC(=O)Oc1ccccc1C(=O)N(Cc1ccc2c(Cl)cc(Cl)c(O)c2n1)c1ccccc1"
qualitative_label = "f"

[[record]]
molecule = "CN1C(=O)N(C)C2C1NN=c1s/c(=C\\c3ccc(F)cc3)c(=O)n12 (stereo not drawn)"
qualitative_label = "f"

[[record]]
molecule = "C=C(C)[C@@H]1CC[C@]2(COC(=O)c3cccnc3)CC[C@]3(C)[C@H](CC[C@@H]4[C@@]5(C)CCCN(C(=O)c6cccnc6)C(C)(C)[C@@H]5CC[C@]43C)[C@@H]12"
qualitative_label = "f"

[[record]]
molecule = "CN(C)CCOc1ccc(/C(=C(/CCCCCCCCCC[P+](c2ccccc2)(c2ccccc2)c2ccccc2)c2ccccc2)c2ccccc2)cc1"
qualitative_label = "t"

[[record]]
molecule = "CCOC(=O)c1c(C)nc2c(c1N)C(=O)C(=O)N2CCc1ccc(OC)c(OC)c1"
qualitative_label = "f"

[[record]]
molecule = "COc1ccc(N/N=C/c2ccc3c(c2)Sc2ccccc2N3C)cc1"
qualitative_label = "f"

[[record]]
molecule = "CC(=O)OCCOc1cc(Cl)c(Cl)cc1Cl"
qualitative_label = "f"

[[record]]
molecule = "C=C(C)[C@@H]1CC[C@]2(COCCCNCCCN)CC[C@]3(C)[C@H](CC[C@@H]4[C@@]5(C)CC[C@H](OCCCN)C(C)(C)[C@@H]5CC[C@]43C)[C@@H]12"
qualitative_label = "t"

[[record]]
molecule = "C#CCOc1cccc(Nc2ncnc3c(NC(=O)CCl)cccc23)c1"
qualitative_label = "t"

[[record]]
molecule = "CN(C)C(=S)NN=C(c1ccccn1)c1ccccn1"
qualitative_label = "t"

[[record]]
molecule = "Nc1ccc(Cl)c2c(=O)c3ccccc3[nH]c12"
qualitative_label = "f"

